Reported values of pKd for individual entries
target: T1, bivalent human SIRPγ protein with mouse Fc (human, UniProt Q9P1W8 29-360); experiment: BLI Octet, antibody on AHC, global 1:2 model
T1 construct: also called Human SIRPγ-mFc
T1 sequence (Q9P1W8 29-360 limits assumed): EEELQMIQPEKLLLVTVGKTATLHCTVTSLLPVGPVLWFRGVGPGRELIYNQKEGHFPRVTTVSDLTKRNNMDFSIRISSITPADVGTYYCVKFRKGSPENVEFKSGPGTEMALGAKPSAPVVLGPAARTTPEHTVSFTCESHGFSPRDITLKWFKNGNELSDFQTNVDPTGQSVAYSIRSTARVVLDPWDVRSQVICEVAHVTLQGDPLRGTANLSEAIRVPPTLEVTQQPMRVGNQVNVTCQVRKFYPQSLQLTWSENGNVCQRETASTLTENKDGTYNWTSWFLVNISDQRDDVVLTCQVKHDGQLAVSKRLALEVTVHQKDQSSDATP
In plain terms, pKd is the concentration in mol/L turned into minus its base-10 logarithm.

binder: Antibody 83 (antibody, V domains shown) VH: QVQLVQSGAEVKKPGASVKVSCKASGYSFSDYYMHWVRQAPGQGLEWMGWMSPNSGNTGYAQKFQGRVTMTRDTSTSTVYMELSSLRSEDTAVYYCARQREEYGHYYYGMDVWGQGTMVTVSS VL: EIVMTQSPATLSVSPGERATLSCRASQSLGSTYLAWYQQKPGQAPRLLIYGASTRATGIPARFSGSGSGTEFTLTISSLQSEDFAVYYCQQYYSSPPTFGQGTKVEIK
pKd: 7.27

As a next step, examine the binder that follows.
State its pKd for this binder: Antibody 95 (antibody, V domains shown) VH: QVQLVQSGAEVKKPGASVKVSCKASGYTFTSYYMHWVRQAPGQGLEWMGWMNPNSGNTGYAQKFQGRVTMTRDTSTSTVYMELSSLRSEDTAVYYCARDQMYSSYGMDVWGQGTTVTVSS VL: DIQMTQSPSSLSASVGDRVTITCRASESITNWLAWYQQKPGKAPKLLIYKASSLESGVPSRFSGSGSGTDFTLTISSLQPEDFATYYCQQSYGTPYTFGQGTKVEIK
5.89
